testDetails: Solubility of different optical brighteners in GLYMO, heated mixing (MM2)
Format: physicochemical
conditionDetails: in GLYMO, heated mixing 50° C. under nitrogen (MM2)
observedProperty: Form a clear solution? Mixing Method 2

>>> result("CCN(CC)c1nc(Nc2ccc(C=Cc3ccc(Nc4nc(Nc5cc(S(=O)(=O)[O-])ccc5S(=O)(=O)[O-])nc(N(CC)CC)n4)cc3S(=O)(=O)[O-])c(S(=O)(=O)[O-])c2)nc(Nc2cc(S(=O)(=O)[O-])ccc2S(=O)(=O)[O-])n1.[Na+].[Na+].[Na+].[Na+].[Na+].[Na+]")
"No"
>>> result("O=S(=O)(O)c1ccccc1C=Cc1ccc(-c2ccc(C=Cc3ccccc3S(=O)(=O)O)cc2)cc1")
"no"
>>> result("C(=Cc1ccc(-c2nc3ccccc3o2)cc1)c1ccc(-c2nc3ccccc3o2)cc1")
"no"
>>> result("CC(C)(C)c1ccc2oc(-c3ccc(-c4nc5cc(C(C)(C)C)ccc5o4)s3)nc2c1")
"Yes"

Values were extracted from patent US12037458B2.
